assay: Selectivity index, ratio of CC50 for human MT4 cells to EC50 for wild-type HIV-1 3B infected in human MT4 cells; format: toxicity, cell-based; conditions: read-out: Ratio CC50/EC50
quantity: selectivity ratio
Numbers only.

| compound | selectivity ratio |
| --- | --- |
| COc1ccc(CSc2nc(C(C#N)c3cccc(Br)c3)c(C)c(=O)[nH]2)cc1 (centres undefined) | 10 |

Given item COc1ccc(CSc2nc(C(C#N)c3cccc(Cl)c3)c(C)c(=O)[nH]2)cc1 (centres undefined) , the value recorded as its selectivity ratio is 9

* * *

Please provide measured EC50 for the entries that follow.
test system: Human immunodeficiency virus 1; experiment: Antiviral activity against HIV-1 RES056 harboring RT K103N+Y181C double mutant infected in human MT4 cells assessed as protection against virus-induced cytopathic effect measured 5 days post-infection by MTT assay; format: functional, organism-based; settings: Human immunodeficiency virus 1, RES056, MT4, 120 h

| compound | quantity | result |
| --- | --- | --- |
| CCc1c(C(C#N)c2ccccc2Cl)nc(SCc2ccc(OC)cc2)[nH]c1=O (stereo not given) | EC50 | > 76.9 µM |

For every item below, please supply its EC50.
1. COc1ccc(CSc2nc(C(C#N)c3cccc(Br)c3)c(C)c(=O)[nH]2)cc1 (stereo not given)
2. COc1ccc(CSc2nc(C(C#N)c3c(F)cccc3Cl)c(C)c(=O)[nH]2)cc1 (stereo not given)
3. CCc1c(C(C#N)c2cccc(F)c2)nc(SCc2ccc(OC)cc2)[nH]c1=O (stereo not given)
4. COc1ccc(CSc2nc(C(C#N)c3ccccc3Cl)c(C(C)C)c(=O)[nH]2)cc1 (stereo not given)

> 156 µM
> 50.1 µM
> 173 µM
> 27.4 µM

* * *

assay: Selectivity index, ratio of CC50 for human MT4 cells to EC50 for wild-type HIV-1 3B infected in human MT4 cells; format: toxicity, cell-based; settings: read-out: Ratio CC50/EC50
Could you please report measured selectivity ratio for the items listed next?
Answers are plain numbers.

See these solved cases before continuing.
| compound | selectivity ratio |
| --- | --- |
| COc1ccc(CSc2nc(C(C#N)c3ccccc3Cl)c(C(C)C)c(=O)[nH]2)cc1 (stereo not given) | 7 |
| COc1ccc(CSc2nc(C(C#N)c3cccc(Br)c3)c(C(C)C)c(=O)[nH]2)cc1 (stereo not given) | 21 |
| COc1ccc(CSc2nc(C(C#N)c3c(F)cccc3Cl)c(C)c(=O)[nH]2)cc1 (stereo not given) | 548 |

// each listed compound needs a value for selectivity ratio
1. COc1ccc(CSc2nc(C(C#N)c3c(Cl)cccc3Cl)c(C)c(=O)[nH]2)cc1 (stereo not given)
2. COc1ccc(CSc2nc(C(C#N)c3ccccc3Cl)c(C)c(=O)[nH]2)cc1 (stereo not given)

[252, 239]

Below are some compounds; for each one, tell me its selectivity ratio.
1. COc1ccc(CSc2nc(C(C#N)c3cc(F)cc(F)c3)c(C)c(=O)[nH]2)cc1 (stereo not given)
2. CCc1c(C(C#N)c2ccccc2Cl)nc(SCc2ccc(OC)cc2)[nH]c1=O (stereo not given)

1: 7; 2: 57

* * *

experiment: Cytotoxicity against mock-infected human MT4 cells assessed as decrease in cell viability measured 5 days post-infection by MTT assay; format: cell-based
quantity: CC50 at 120 h (µM)
Give bare numbers, in µM.

| compound | CC50 at 120 h, µM |
| --- | --- |
| COc1ccc(CSc2nc(C(C#N)c3cccc(Cl)c3)c(C)c(=O)[nH]2)cc1 (stereo unspecified) | 161 |
| CCc1c(C(C#N)c2ccccc2Cl)nc(SCc2ccc(OC)cc2)[nH]c1=O (stereo unspecified) | 76.9 |
| COc1ccc(CSc2nc(C(C#N)c3ccc(F)cc3F)c(C)c(=O)[nH]2)cc1 (stereo unspecified) | 157 |
| COc1ccc(CSc2nc(C(C#N)c3cc(F)cc(F)c3)c(C)c(=O)[nH]2)cc1 (stereo unspecified) | 154 |

Now turn to the next compound.
Consider COc1ccc(CSc2nc(C(C#N)c3ccc(Br)cc3F)c(C)c(=O)[nH]2)cc1 (stereo unspecified) . Its measured CC50 at 120 h is 22.5

Source listed as ChEMBL document CHEMBL3132784.
